Target: ADAAD (Active DNA-dependent ATPase A domain) (Bos taurus, UniProt Q9TTA5, T780A)
Construct: ATPase domain fragment of bovine SMARCAL1 (RecA-like domains 1 and 2), plasmid pCP101 (pET-14b, NdeI/XhoI), E. coli BL21(DE3), Ni-NTA then DEAE-sepharose; tag removal not mentioned
Assay: intrinsic tryptophan fluorescence titration (ex […] nm, em […] nm), one-site fit
pKd: −log10 of the molar value.
measurementLabel: pKd

>>> recordednumber("Nc1ncnc2c1ncn2[C@@H]1O[C@H](COP(=O)(O)OP(=O)(O)OP(=O)(O)O)[C@@H](O)[C@H]1O [ATP]")
6.00
